From: the supplement of paper PMC10307832

Recorded relative viability values for a group of compounds are listed next.
# Tested on: NCI-H522
# Assay Text: relative viability (nuclei count vs DMSO), 5 days (fraction); higher = more cells survive
# Assay Conditions: first compound 4 µM
I'd appreciate a reply containing only the number, no unit.

IN: Quick one: give measured relative viability for C[C@@H]1CN(CC(=O)Nc2ccc3c(c2)Cc2cccc(-c4cc(=O)cc(N5CCOCC5)o4)c2S3)C[C@H](C)O1 + CC(=O)Nc1cccc(-n2c(=O)n(C3CC3)c(=O)c3c(Nc4ccc(I)cc4F)n(C)c(=O)c(C)c32)c1 [Trametinib] (partner 0.02 µM)
OUT: 0.816

IN: Assign relative viability to the following record: COc1cc(N2CCC(C(N)=O)CC2)ccc1Nc1nc(N)c(Cl)c(Nc2ccccc2S(=O)(=O)C(C)C)n1 [HG-5-88-01] + O=C(c1cc(Cc2n[nH]c(=O)c3ccccc23)ccc1F)N1CCN(C(=O)C2CC2)CC1 [Olaparib] (partner 8 µM)
OUT: 0.594

IN: Tell me relative viability reported for Clc1ccc(Nc2nnc(Cc3ccncc3)c3ccccc23)cc1 [Vatalanib] + Cc1cc(Nc2cc(N3CCN(C)CC3)nc(Sc3ccc(NC(=O)C4CC4)cc3)n2)n[nH]1 [Tozasertib] (partner 0.1 µM)
OUT: 0.477

IN: Specify reported relative viability for the compound shown: COc1cc(N2CCC(C(N)=O)CC2)ccc1Nc1nc(N)c(Cl)c(Nc2ccccc2S(=O)(=O)C(C)C)n1 [HG-5-88-01] + Nc1ncn([C@H]2C[C@H](O)[C@@H](CO)O2)c(=O)n1 [Decitabine] (partner 2 µM)
OUT: 0.649

====

# System: LK-2
# Assay Text: relative viability (nuclei count vs DMSO), 5 days (fraction); higher = more cells survive
# Assay Conditions: first compound 1.265 µM
Recorded Metric: relative viability
Please reply with the number alone, leaving off any unit.

The examples below pair each entry with its known result.
IN: Give the reported value of relative viability for this record: COc1cc(N2CCC(C(N)=O)CC2)ccc1Nc1nc(N)c(Cl)c(Nc2ccccc2S(=O)(=O)C(C)C)n1 [HG-5-88-01] + CCNC(=O)c1noc(-c2cc(C(C)C)c(O)cc2O)c1-c1ccc(CN2CCOCC2)cc1 [Luminespib] (partner 0.01 µM)
OUT: 0.183

IN: Give the reported relative viability for this compound. Clc1ccc(Nc2nnc(Cc3ccncc3)c3ccccc23)cc1 [Vatalanib] + COc1cccc2cc(-c3nc([C@H]4CC[C@H](C(=O)O)CC4)n4ncnc(N)c34)[nH]c12 [OSI-027] (partner 0.5 µM)
OUT: 0.196

IN: Provide one value: measured relative viability of Clc1ccc(Nc2nnc(Cc3ccncc3)c3ccccc23)cc1 [Vatalanib] + CC(=O)Nc1cccc(-n2c(=O)n(C3CC3)c(=O)c3c(Nc4ccc(I)cc4F)n(C)c(=O)c(C)c32)c1 [Trametinib] (partner 0.02 µM)
OUT: 0.876

Further cases:
IN: Read the entry Clc1ccc(Nc2nnc(Cc3ccncc3)c3ccccc23)cc1 [Vatalanib] + C[C@]1(O)C[C@@H](c2nc(-c3ccc4ccc(-c5ccccc5)nc4c3)c3c(N)nccn32)C1 [Linsitinib] (partner 1 µM) and write its reported relative viability.
OUT: 0.435

====

relative viability reference
# Tested on: EMC-BAC-2
# Assay Text: relative viability (nuclei count vs DMSO), 5 days (fraction); higher = more cells survive
# Assay Conditions: first compound 0.04 µM
Reply: number alone, nothing else.

IN: Report value only: relative viability, EMC-BAC-2, C[C@@H]1CN(CC(=O)Nc2ccc3c(c2)Cc2cccc(-c4cc(=O)cc(N5CCOCC5)o4)c2S3)C[C@H](C)O1 + COc1cccc2cc(-c3nc([C@H]4CC[C@H](C(=O)O)CC4)n4ncnc(N)c34)[nH]c12 [OSI-027] (partner 0.5 µM)
OUT: 0.392

Next:
IN: Report value: relative viability, system: EMC-BAC-2, molecule: Clc1ccc(Nc2nnc(Cc3ccncc3)c3ccccc23)cc1 [Vatalanib] + Cc1cc(Nc2cc(N3CCN(C)CC3)nc(Sc3ccc(NC(=O)C4CC4)cc3)n2)n[nH]1 [Tozasertib] (partner 0.1 µM)
OUT: 0.218

====

Property: relative viability; scope: individual molecules
# Test system: HCC-44
# Assay Text: relative viability (nuclei count vs DMSO), 5 days (fraction); higher = more cells survive
# Assay Conditions: first compound 0.01 µM

Sample records with relative viability:
IN: Lab note: HCC-44 assay, enter relative viability for CC(C)Oc1cc(Nc2nc(N[C@@H](C)c3ccc(F)cn3)ncc2Cl)n[nH]1 [AZ23] + N=C(N)NC(=N)NCCc1ccccc1 [Phenformin] (partner 250 µM) here
OUT: 0.231

IN: Would you please give the reported relative viability of CC(C)Oc1cc(Nc2nc(N[C@@H](C)c3ccc(F)cn3)ncc2Cl)n[nH]1 [AZ23] + CC1(C)CCC(c2ccc(Cl)cc2)=C(CN2CCN(c3ccc(C(=O)NS(=O)(=O)c4ccc(N[C@H](CCN5CCOCC5)CSc5ccccc5)c(S(=O)(=O)C(F)(F)F)c4)cc3)CC2)C1 [Navitoclax] (partner 0.5 µM) with HCC-44?
OUT: 1.31

IN: Give HCC-44 relative viability for the following molecule: CC(C)Oc1cc(Nc2nc(N[C@@H](C)c3ccc(F)cn3)ncc2Cl)n[nH]1 [AZ23] + NC(=O)Nc1cc(-c2cccc(F)c2)sc1C(=O)N[C@H]1CCCNC1 [AZD7762] (partner 0.2 µM)
OUT: 1.06

Would you kindly look at the next entry?
IN: Give HCC-44 relative viability for the following molecule: CC(C)Oc1cc(Nc2nc(N[C@@H](C)c3ccc(F)cn3)ncc2Cl)n[nH]1 [AZ23] + C[C@@H](Oc1cc(-c2cnn(C3CCNCC3)c2)cnc1N)c1c(Cl)ccc(F)c1Cl [Crizotinib] (partner 1 µM)
OUT: 0.934

====

# Tested on: NCI-H322M
# Assay Text: relative viability (nuclei count vs DMSO), 5 days (fraction); higher = more cells survive
# Assay Conditions: first compound 0.4 µM
Recorded Metric: relative viability
Reply with just the number.

Solved cases (3 shown):
IN: Give the measured relative viability for C[C@@H]1CN(CC(=O)Nc2ccc3c(c2)Cc2cccc(-c4cc(=O)cc(N5CCOCC5)o4)c2S3)C[C@H](C)O1 + Cc1cc(Nc2cc(N3CCN(C)CC3)nc(Sc3ccc(NC(=O)C4CC4)cc3)n2)n[nH]1 [Tozasertib] (partner 0.1 µM)
OUT: 0.449

IN: Find the measured relative viability of C[C@@H]1CN(CC(=O)Nc2ccc3c(c2)Cc2cccc(-c4cc(=O)cc(N5CCOCC5)o4)c2S3)C[C@H](C)O1 + CS(=O)(=O)CCNCc1ccc(-c2ccc3ncnc(Nc4ccc(OCc5cccc(F)c5)c(Cl)c4)c3c2)o1 [Lapatinib] (partner 2 µM) and report it.
OUT: 0.626

IN: Please look at this compound and report its relative viability: Clc1ccc(Nc2nnc(Cc3ccncc3)c3ccccc23)cc1 [Vatalanib] + CC(C)C[C@H](NC(=O)[C@H](Cc1ccccc1)NC(=O)c1cnccn1)B(O)O [Bortezomib] (partner 0.002 µM)
OUT: 1.33

API: the following record is the query input.
IN: Entry C[C@@H]1CN(CC(=O)Nc2ccc3c(c2)Cc2cccc(-c4cc(=O)cc(N5CCOCC5)o4)c2S3)C[C@H](C)O1 + Cc1nc(Nc2ncc(C(=O)Nc3c(C)cccc3Cl)s2)cc(N2CCN(CCO)CC2)n1 [Dasatinib] (partner 0.075 µM) needs its relative viability filled in; supply it.
OUT: 0.26

====

# System: SK-LU-1
# Assay Text: relative viability (nuclei count vs DMSO), 5 days (fraction); higher = more cells survive
# Assay Conditions: first compound 1.265 µM
Recorded Metric: relative viability
Write the number on its own, no unit after it.

Below, each entry is followed by its recorded relative viability result.
IN: Provide relative viability value for the following compound: Clc1ccc(Nc2nnc(Cc3ccncc3)c3ccccc23)cc1 [Vatalanib] + Nc1ncn([C@H]2C[C@H](O)[C@@H](CO)O2)c(=O)n1 [Decitabine] (partner 2 µM)
OUT: 0.668

IN: Look up and state reported relative viability for COc1cc(N2CCC(C(N)=O)CC2)ccc1Nc1nc(N)c(Cl)c(Nc2ccccc2S(=O)(=O)C(C)C)n1 [HG-5-88-01] + CCNC(=O)c1noc(-c2cc(C(C)C)c(O)cc2O)c1-c1ccc(CN2CCOCC2)cc1 [Luminespib] (partner 0.01 µM)
OUT: 0.229

--- query ---
IN: Given Clc1ccc(Nc2nnc(Cc3ccncc3)c3ccccc23)cc1 [Vatalanib] + COc1cccc2cc(-c3nc([C@H]4CC[C@H](C(=O)O)CC4)n4ncnc(N)c34)[nH]c12 [OSI-027] (partner 0.5 µM) , respond with its relative viability.
OUT: 0.357

====

Measured relative viability accompanies every entry in the list below.
# Test system: EBC-1
# Assay Text: relative viability (nuclei count vs DMSO), 5 days (fraction); higher = more cells survive
# Assay Conditions: first compound 0.04 µM
Simply state the number, no unit and no words.

IN: Find the measured relative viability of Clc1ccc(Nc2nnc(Cc3ccncc3)c3ccccc23)cc1 [Vatalanib] + CS(=O)(=O)N1CCN(Cc2cc3nc(-c4cccc5[nH]ncc45)nc(N4CCOCC4)c3s2)CC1 [Pictilisib] (partner 1 µM) and report it.
OUT: 0.346

IN: Entry C[C@@H]1CN(CC(=O)Nc2ccc3c(c2)Cc2cccc(-c4cc(=O)cc(N5CCOCC5)o4)c2S3)C[C@H](C)O1 + CS(=O)(=O)N1CCN(Cc2cc3nc(-c4cccc5[nH]ncc45)nc(N4CCOCC4)c3s2)CC1 [Pictilisib] (partner 1 µM) needs its relative viability filled in; supply it.
OUT: 0.487

IN: Give relative viability for COc1cc(N2CCC(C(N)=O)CC2)ccc1Nc1nc(N)c(Cl)c(Nc2ccccc2S(=O)(=O)C(C)C)n1 [HG-5-88-01] + CC1(C)CCC(c2ccc(Cl)cc2)=C(CN2CCN(c3ccc(C(=O)NS(=O)(=O)c4ccc(N[C@H](CCN5CCOCC5)CSc5ccccc5)c(S(=O)(=O)C(F)(F)F)c4)cc3)CC2)C1 [Navitoclax] (partner 0.5 µM)
OUT: 0.407

Switching to the query record.
IN: For the compound C[C@@H]1CN(CC(=O)Nc2ccc3c(c2)Cc2cccc(-c4cc(=O)cc(N5CCOCC5)o4)c2S3)C[C@H](C)O1 + O=C(c1cc(Cc2n[nH]c(=O)c3ccccc23)ccc1F)N1CCN(C(=O)C2CC2)CC1 [Olaparib] (partner 8 µM) , report relative viability.
OUT: 0.736
